FYI, the data here is from patent US9533985B2.

Biological target: α4β7 integrin (Homo sapiens (Human), UniProt P13612+P26010)
Sequence (P13612 34-1032): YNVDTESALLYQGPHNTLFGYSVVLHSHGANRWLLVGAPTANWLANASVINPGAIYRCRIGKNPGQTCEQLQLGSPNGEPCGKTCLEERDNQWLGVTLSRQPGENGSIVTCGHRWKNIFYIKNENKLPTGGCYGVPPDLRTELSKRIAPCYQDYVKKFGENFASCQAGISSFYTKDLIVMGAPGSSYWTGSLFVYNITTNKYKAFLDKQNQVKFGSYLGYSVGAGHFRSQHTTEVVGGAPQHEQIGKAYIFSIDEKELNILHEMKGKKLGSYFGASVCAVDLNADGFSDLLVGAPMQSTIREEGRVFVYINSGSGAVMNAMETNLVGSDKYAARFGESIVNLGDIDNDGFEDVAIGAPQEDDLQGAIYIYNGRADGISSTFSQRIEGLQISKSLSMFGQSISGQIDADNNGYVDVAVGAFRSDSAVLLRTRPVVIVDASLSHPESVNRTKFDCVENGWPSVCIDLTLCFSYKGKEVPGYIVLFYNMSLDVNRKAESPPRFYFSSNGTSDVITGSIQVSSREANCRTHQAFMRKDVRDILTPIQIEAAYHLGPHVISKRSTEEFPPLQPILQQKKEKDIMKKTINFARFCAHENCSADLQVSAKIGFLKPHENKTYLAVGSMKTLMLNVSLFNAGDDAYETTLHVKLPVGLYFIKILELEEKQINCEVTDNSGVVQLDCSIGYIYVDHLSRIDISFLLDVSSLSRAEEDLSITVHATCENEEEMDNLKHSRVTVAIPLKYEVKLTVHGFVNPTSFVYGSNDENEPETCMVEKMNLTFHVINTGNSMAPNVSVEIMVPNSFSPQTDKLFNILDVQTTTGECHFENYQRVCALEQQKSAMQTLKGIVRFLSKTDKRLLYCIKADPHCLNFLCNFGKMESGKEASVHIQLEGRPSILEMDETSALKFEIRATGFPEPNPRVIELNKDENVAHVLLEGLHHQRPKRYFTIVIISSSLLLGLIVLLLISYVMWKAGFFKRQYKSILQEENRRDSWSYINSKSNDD
Sequence (P26010 20-798): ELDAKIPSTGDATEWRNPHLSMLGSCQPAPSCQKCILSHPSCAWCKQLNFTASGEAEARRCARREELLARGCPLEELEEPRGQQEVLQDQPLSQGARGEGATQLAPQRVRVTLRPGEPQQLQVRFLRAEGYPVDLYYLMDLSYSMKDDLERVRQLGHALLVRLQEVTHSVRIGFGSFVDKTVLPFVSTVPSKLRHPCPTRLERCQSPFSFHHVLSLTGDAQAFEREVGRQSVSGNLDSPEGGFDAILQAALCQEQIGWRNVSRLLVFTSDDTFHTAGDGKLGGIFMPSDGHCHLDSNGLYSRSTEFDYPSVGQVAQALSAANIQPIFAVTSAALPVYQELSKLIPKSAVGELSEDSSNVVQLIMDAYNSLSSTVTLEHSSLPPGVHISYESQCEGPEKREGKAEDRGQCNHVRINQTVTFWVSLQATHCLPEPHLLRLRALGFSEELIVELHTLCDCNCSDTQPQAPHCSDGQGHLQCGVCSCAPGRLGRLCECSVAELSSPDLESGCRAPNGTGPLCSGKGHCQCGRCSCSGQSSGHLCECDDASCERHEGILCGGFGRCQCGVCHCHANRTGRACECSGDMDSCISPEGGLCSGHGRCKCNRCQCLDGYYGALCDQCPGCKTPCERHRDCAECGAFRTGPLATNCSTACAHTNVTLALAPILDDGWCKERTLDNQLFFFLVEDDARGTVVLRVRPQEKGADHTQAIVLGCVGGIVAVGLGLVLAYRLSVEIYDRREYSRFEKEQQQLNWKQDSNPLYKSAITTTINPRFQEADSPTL
Experiment: MAdCAM-1/α4β7 integrin binding inhibitory activity evaluation test in the presence of serum (2)
Format: cell-based
Details: RPMI-8866 cells binding to mouse MAdCAM-1/Fc, same manner as Test (3), read-out: α4β7 Rank of activity with serum added
Protocol: The ability of test substances to inhibit the binding of a human B cell line, RPMI-8866, which is known to express α4β7 integrin, to MAdCAM-1 was measured. […] The MAdCAM-1/α4β7 integrin binding inhibitory activity in the presence of serum was measured in the same manner as in Test (3) described above. […]
Listed here: items and their measured IC50.

Consider the reported IC50 for these compounds:
STRUCTURE SMILES STRING: Cn1c(=O)n(-c2ccc(C[C@H](NC(=O)c3cc(F)c(NS(=O)(=O)c4ccco4)cc3F)C(=O)O)nc2)c(=O)c2ccncc21
IC50: 10 to 50 nM

STRUCTURE SMILES STRING: Cn1c(=O)n(-c2ccc(C[C@H](NC(=O)c3cc(F)c(NS(=O)(=O)c4ccco4)cc3F)C(=O)O)cn2)c(=O)c2ccncc21
IC50: 10 to 50 nM

STRUCTURE SMILES STRING: CC(=O)c1ccc(S(=O)(=O)Nc2cc(F)c(C(=O)N[C@@H](Cc3ccc(-n4c(=O)c5ccncc5n(C)c4=O)cn3)C(=O)O)cc2F)cc1
IC50: 10 to 50 nM

STRUCTURE SMILES STRING: Cc1cc(-c2ccc(S(=O)(=O)Nc3cc(F)c(C(=O)N[C@@H](Cc4ccc(-n5c(=O)c6ccncc6n(C)c5=O)cn4)C(=O)O)cc3F)nc2)cc(C)n1
IC50: 50 to 200 nM

STRUCTURE SMILES STRING: Cn1c(=O)n(-c2ccc(C[C@H](NC(=O)c3cc(F)c(NS(=O)(=O)c4ccc(-c5cncnc5)cc4)cc3F)C(=O)O)nc2)c(=O)c2ccncc21
IC50: 10 to 50 nM

STRUCTURE SMILES STRING: Cn1ccc(=O)n(-c2ccc(C[C@H](NC(=O)c3c(F)cc(NS(=O)(=O)c4ccc(C(=O)NC5CCCC5)cc4)cc3F)C(=O)O)cc2)c1=O
IC50: ≤ 10 nM

Fill in: IC50 of Cn1ccc(=O)n(-c2ccc(C[C@H](NC(=O)c3c(F)cc(NS(=O)(=O)c4ccc(-n5cccc5)cn4)cc3F)C(=O)O)cc2)c1=O is ___
10 to 50 nM

Reported IC50, compound Cn1ccc(=O)n(-c2ccc(C[C@H](NC(=O)c3c(F)cc(NS(=O)(=O)c4ccc(-c5ncccn5)cn4)cc3F)C(=O)O)nc2)c1=O : ____
10 to 50 nM
